Can you tell me pEC50 for the items I'm about to list?
test system: hepatitis C replicon; assay: hepatitis C replicon EC50 assay; type: cell-based, hepatitis C virus (HCV); conditions: Hepatitis C virus; hepatitis C replicon; read-out: EC50
pEC50: −log10 of the molar value.

C=C[C@@H]1C[C@]1(NC(=O)[C@@H]1[C@H](C)[C@@H](Oc2cc(-c3nc(C(C)C)cs3)nc3c(C)c(OC)ccc23)CN1C(=O)[C@@H](Nc1cccc(C(F)(F)F)c1)C(C)(C)C)C(=O)NS(=O)(=O)C1(C)CC1: 7.00 to 8.00

# next compound below
Provide only the value of recorded pEC50 for `COc1ccc2c(O[C@H]3CN4C(=O)[C@@H](N)CCCCC/C=C\[C@@H]5C[C@@]5(C(=O)NS(=O)(=O)C5(C)CC5)NC(=O)[C@@H]4[C@@H]3C)cc(-c3nc(C(C)C)cs3)nc2c1C`
7.00 to 8.00

====

Provide the reported pEC50 of each item.
test system: hepatitis C replicon; experiment: hepatitis C replicon EC50 assay; type: cell-based, hepatitis C virus (HCV); settings: Hepatitis C virus; hepatitis C replicon; read-out: EC50
pEC50: −log10 of the molar value.

Solved cases below.
CC(C)n1c(O[C@H]2CN3C(=O)[C@@H](NC(=O)OC(C)(C)C)CCCCC/C=C\[C@@H]4C[C@@]4(C(=O)NS(=O)(=O)C4(C)CC4)NC(=O)[C@@H]3[C@@H]2C)nc2c(-c3nc(C4CCCCC4)cs3)cccc21: 7.00 to 8.00
CC(C)n1c(O[C@H]2CN3C(=O)[C@@H](NC(=O)OC(C)(C)C)CCCCC/C=C\[C@@H]4C[C@@]4(C(=O)NS(=O)(=O)C4CC4)NC(=O)[C@@H]3[C@@H]2C)nc2c(-c3nc(C4CCCCC4)cs3)cccc21: 7.00 to 8.00
C=C[C@@H]1C[C@]1(NC(=O)[C@@H]1[C@H](C)[C@@H](Oc2cc(-c3nc(C(C)C)cs3)nc3c(C)c(OC)ccc23)CN1C(=O)C(N)C(C)(C)C)C(=O)NS(=O)(=O)C1(C)CC1 (stereo partly shown): 7.00 to 8.00

Now turn to the next molecule.
System hepatitis C replicon. Read-out pEC50. Item `COc1ccc2c(O[C@H]3CN4C(=O)[C@@H](NC(=O)OC(C)(C)C)CCCCC/C=C\[C@@H]5C[C@@]5(C(=O)NS(=O)(=O)C5(C)CC5)NC(=O)[C@@H]4[C@H]3C)cc(-c3nc(C(C)C)cs3)nc2c1C` . Report value.
< 7.00

====

For each record, write down the corresponding pIC50.
target: NS3/NS4 complexes (Hepatitis C virus genotype 1a, UniProt P27958); assay: NS3/NS4 inhibition assay (inhibitory concentrations of test compounds); details: NS3-NS4 activity; 23° C., pH 7.5, 25 μM NS4A peptide
Sequence (P27958 1658-1711): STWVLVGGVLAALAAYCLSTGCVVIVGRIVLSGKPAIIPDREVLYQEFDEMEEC
Sequence (P27958 1027-1657): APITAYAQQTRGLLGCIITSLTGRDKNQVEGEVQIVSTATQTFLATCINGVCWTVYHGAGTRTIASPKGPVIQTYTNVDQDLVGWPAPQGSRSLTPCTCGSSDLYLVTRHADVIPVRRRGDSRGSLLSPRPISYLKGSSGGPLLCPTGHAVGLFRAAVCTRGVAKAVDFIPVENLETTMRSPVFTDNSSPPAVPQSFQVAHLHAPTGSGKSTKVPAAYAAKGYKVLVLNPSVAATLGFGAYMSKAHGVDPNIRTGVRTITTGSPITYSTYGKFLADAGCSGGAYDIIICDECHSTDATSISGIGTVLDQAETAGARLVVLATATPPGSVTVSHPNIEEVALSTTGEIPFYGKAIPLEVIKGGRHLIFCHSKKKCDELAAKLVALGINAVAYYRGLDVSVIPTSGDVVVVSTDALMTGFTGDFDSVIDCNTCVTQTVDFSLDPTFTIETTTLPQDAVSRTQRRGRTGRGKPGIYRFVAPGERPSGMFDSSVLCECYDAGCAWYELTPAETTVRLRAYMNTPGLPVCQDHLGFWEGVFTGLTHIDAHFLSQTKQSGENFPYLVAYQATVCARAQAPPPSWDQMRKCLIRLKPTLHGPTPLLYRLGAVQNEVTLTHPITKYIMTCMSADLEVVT
pIC50: −log10 of the molar value.

The following compounds have reported results that may help.
COc1cnc(O[C@H]2CN3C(=O)[C@@H](NC(=O)OC(C)(C)C)CCCCC/C=C\[C@@H]4C[C@@]4(C(=O)NS(=O)(=O)C4(C)CC4)NC(=O)[C@@H]3[C@@H]2C)c2cc(Cl)ccc12 [Compound 111]: > 8.00
C=C[C@@H]1C[C@]1(NC(=O)[C@@H]1[C@H](C)[C@@H](Oc2ncc(OC)c3ccc(Cl)cc23)CN1C(=O)[C@@H](NC(=O)OC(C)(C)C)C(C)(C)C)C(=O)NS(=O)(=O)C1(C)CC1 [Compound 211]: > 8.00
C=C[C@@H]1C[C@]1(NC(=O)[C@@H]1[C@H](C)[C@@H](Oc2cc(-c3nc(C(C)C)cs3)nc3c(C)c(OC)ccc23)CN1C(=O)C(N)C(C)(C)C)C(=O)NS(=O)(=O)C1(C)CC1 (some centres unmarked) [Compound 203]: > 8.00

State recorded pIC50 for all listed compounds.
1. CC(C)n1c(O[C@H]2CN3C(=O)[C@@H](NC(=O)OC(C)(C)C)CCCCC/C=C\[C@@H]4C[C@@]4(C(=O)NS(=O)(=O)C4CC4)NC(=O)[C@@H]3[C@@H]2C)nc2c(-c3nc(C4CCCCC4)cs3)cccc21 [Compound 109]
2. COc1ccc2c(O[C@H]3CN4C(=O)[C@@H](NC(=O)OC(C)(C)C)CCCCC/C=C\[C@@H]5C[C@@]5(C(=O)NS(=O)(=O)C5(C)CC5)NC(=O)[C@@H]4C3(C)C)cc(-c3nc(C(C)C)cs3)nc2c1C [Compound 101]
3. COc1ccc2c(O[C@H]3CN4C(=O)[C@@H](NC(=O)OC(C)(C)C)CCCCC/C=C\[C@@H]5C[C@@]5(C(=O)NS(=O)(=O)C5CC5)NC(=O)[C@@H]4[C@@H]3C)cc(-c3nc(C(C)C)cs3)nc2c1C [Compound 103]
4. C=C[C@@H]1C[C@]1(NC(=O)[C@@H]1[C@H](C)[C@@H](Oc2cc(-c3nc(C(C)C)cs3)nc3c(C)c(OC)ccc23)CN1C(=O)[C@@H](Nc1cccc(C(F)(F)F)c1)C(C)(C)C)C(=O)NS(=O)(=O)C1(C)CC1 [Compound 209]
5. C=C[C@@H]1C[C@]1(NC(=O)[C@@H]1[C@@H](C)[C@@H](Oc2cc(-c3nc(C(C)C)cs3)nc3c(C)c(OC)ccc23)CN1C(=O)[C@@H](NC(=O)OC(C)(C)C)C(C)(C)C)C(=O)NS(=O)(=O)C1(C)CC1 [Compound 208]

> 8.00
7.00 to 8.00
> 8.00
> 8.00
7.00 to 8.00

Entry source: patent US20120095211A1
